Recorded values, source patent US10882865B2.

- system_name: glucocerebrosidase (GCase) (Homo sapiens)
- assay_info: Glucocerebrosidase activation (Table 1, Exemplary Compounds and Activities)
- Type: biochemical
- reported_conditions: activation of glucocerebrosidase; read-out: Maximum Activation (Emax)
- Description: The compounds disclosed herein preferably modulate activity of glucocerebrosidase. Modulation may include inhibiting or decreasing glucocerebrosidase activity. Modulation also may include activating or increasing glucocerebrosidase activity. Glucocerebrosidase activity may be assessed utilizing methods known in the art and the methods disclosed herein, including the methods disclosed in the Examples provided herein. […]
measured_parameter: Emax (%)

compound | system_name | measured_parameter | quantitative_result
Cc1cc(C)n2ccc(C(=O)Nc3cccc(CCC(=O)ON4C(=O)CCC4=O)c3)c2n1 [compound 38] | glucocerebrosidase (GCase) (Homo sapiens) | Emax | 810
Cc1cc(C)n2ccc(C(=O)Nc3nc4c(s3)CC(C)CC4)c2n1 (stereo not drawn) [compound 45] | glucocerebrosidase (GCase) (Homo sapiens) | Emax | 325
Cc1cc(C)n2ccc(C(=O)NCc3ccccc3CNC(=O)c3ccn4c(C)cc(C)nc34)c2n1 [compound 42] | glucocerebrosidase (GCase) (Homo sapiens) | Emax | 715

(A) Cc1cc(C)n2ccc(C(=O)Nc3cccc(CC(=O)Oc4ccc([N+](=O)[O-])cc4)c3)c2n1 [compound 51]
(B) Cc1cc(C)n2ccc(C(=O)NCC3COc4ccccc4O3)c2n1 (stereo not drawn) [compound 23]
Return label of the item with the larger Emax. Candidates: A , B . // caller expects the label of the chosen entry B
(B: 644%, A: 172%)

----------
- system_name: glucocerebrosidase (GCase) (Homo sapiens, UniProt P04062)
- assay_info: Glucocerebrosidase activation (Table 1, Exemplary Compounds and Activities)
- Assay type: biochemical
- reported_conditions: activation of glucocerebrosidase
measured_parameter: AC50 (µM)

compound_smiles | system_name | measured_parameter | quantitative_result
Cc1cc(C)n2ccc(C(=O)Nc3cccc(NC(=O)CCl)c3)c2n1 | glucocerebrosidase (GCase) (Homo sapiens, UniProt P04062) | AC50 | 3.43

(I) COC(=O)Cc1cccc(NC(=O)c2ccn3c(C)cc(C)nc23)c1
(II) Cc1cc(C)n2ccc(C(=O)Nc3ccc4c(c3)CCO4)c2n1
(III) Cc1cc(C)n2ccc(C(=O)Nc3cccc(C(=O)O)c3)c2n1
# desc sort on AC50 across 3 molecules Answer by naming the labels in the order asked. I, III, II
(I: 6.59 µM, III: 2.87 µM, II: 1.12 µM)

----------
- system_name: UniProt:P04062
- assay_info: Glucocerebrosidase activation (Table 1, Exemplary Compounds and Activities)
- Assay type: biochemical
- reported_conditions: activation of glucocerebrosidase
measured_parameter: AC50 (µM)

The cases that follow already have their AC50 on record.
compound | value_unit | quantitative_result
COC(=O)Cc1cc(NC(=O)c2ccn3c(C)cc(-c4cccnc4)nc23)ccc1-c1cn(CCOCCOCCO)nn1 [compound 40] | µM | 4.47
Cc1cc(C)n2ccc(C(=O)Nc3cccc(C(C)C)c3)c2n1 [compound 9] | µM | 2.23
Cc1cc(C)n2ccc(C(=O)Nc3ccc(CCC(=O)ON4C(=O)CCC4=O)cc3)c2n1 [compound 27] | µM | 2.82
Cc1cc(C)n2ccc(C(=O)Nc3cccc(CC(C)C)c3)c2n1 [compound 12] | µM | 3.44
Cc1cc(C)n2ccc(C(=O)Nc3ccc(CCCOCCOCCOCCOCCNC(=O)C4CCCCC4)c(CC(=O)ON4C(=O)CCC4=O)c3)c2n1 [compound 49] | µM | 3.55

(A) Cc1cc(C)n2ccc(C(=O)Nc3ccc(CC(=O)O)cc3)c2n1 [compound 22]
(B) CCOC(=O)Cc1cc(NC(=O)c2ccn3c(C)cc(C)nc23)ccc1CCCOCCOCCOCCOCCNC(=O)C1CCCCC1 [compound 48]
(C) Cc1cc(C)n2ccc(C(=O)Nc3nc4c(s3)CC(C)CC4)c2n1 (centres unmarked) [compound 45]
Let's sort these by AC50, smallest first. Go ahead? Show the ranking through the labels, in the order asked for. C, B, A
(C: 1.78 µM, B: 3.16 µM, A: 35.5 µM)

----------
- system_name: glucocerebrosidase (GCase) (Homo sapiens, UniProt P04062)
- assay_info: Glucocerebrosidase activation (Table 1, Exemplary Compounds and Activities)
- Format: biochemical
- reported_conditions: activation of glucocerebrosidase; read-out: Maximum Activation (Emax)
- From the text: The compounds disclosed herein preferably modulate activity of glucocerebrosidase. Modulation may include inhibiting or decreasing glucocerebrosidase activity. Modulation also may include activating or increasing glucocerebrosidase activity. Glucocerebrosidase activity may be assessed utilizing methods known in the art and the methods disclosed herein, including the methods disclosed in the Examples provided herein. […]
measured_parameter: Emax (%)

Please review the following examples before continuing.
compound_smiles | Emax / %
Cc1cc(C)n2ccc(C(=O)Nc3ccc(CCC(=O)O)cc3)c2n1 | 700
Cc1cc(C)n2ccc(C(=O)Nc3nc4c(s3)CCCC4)c2n1 | 342

(A) CCOC(=O)c1cccc(NC(=O)c2ccn3c(C)cc(C)nc23)c1
(B) CCOC(=O)Cc1cc(NC(=O)c2ccn3c(C)cc(C)nc23)ccc1CCCOCCOCCOCCOCCNC(=O)C1CCCCC1
Please choose the item with the lower Emax value from this pair: A and B When you have decided, please share the label of that item. A

(P) Cc1cc(C)n2ccc(C(=O)Nc3ccc(CC(=O)O)cc3)c2n1
(Q) Cc1cc(C)n2ccc(C(=O)Nc3ccccc3Oc3ccccc3)c2n1
I'd appreciate it if you could identify which of P and Q has the greater Emax. Could you answer with the label of the item you picked? P
(P: 429%, Q: 298%)

----------
- system_name: glucocerebrosidase (GCase) (Homo sapiens)
- Sequence (P04062 40-536): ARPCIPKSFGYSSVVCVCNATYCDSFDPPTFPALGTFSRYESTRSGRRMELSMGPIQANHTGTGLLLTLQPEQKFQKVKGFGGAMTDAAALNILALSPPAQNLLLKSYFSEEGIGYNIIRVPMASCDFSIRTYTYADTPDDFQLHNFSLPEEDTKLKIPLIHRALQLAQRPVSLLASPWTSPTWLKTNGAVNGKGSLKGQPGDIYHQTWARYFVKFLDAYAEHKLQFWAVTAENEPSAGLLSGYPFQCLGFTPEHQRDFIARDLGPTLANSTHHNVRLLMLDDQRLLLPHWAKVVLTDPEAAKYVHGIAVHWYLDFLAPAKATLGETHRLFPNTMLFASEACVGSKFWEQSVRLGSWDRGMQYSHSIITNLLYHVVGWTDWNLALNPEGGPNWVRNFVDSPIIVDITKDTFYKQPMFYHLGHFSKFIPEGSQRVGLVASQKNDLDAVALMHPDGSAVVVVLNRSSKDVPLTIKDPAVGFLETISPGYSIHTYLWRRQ
- assay_info: Glucocerebrosidase activation (Table 1, Exemplary Compounds and Activities)
- Format: biochemical
- reported_conditions: activation of glucocerebrosidase
- Description: The compounds disclosed herein preferably modulate activity of glucocerebrosidase. Modulation may include inhibiting or decreasing glucocerebrosidase activity. Modulation also may include activating or increasing glucocerebrosidase activity. Glucocerebrosidase activity may be assessed utilizing methods known in the art and the methods disclosed herein, including the methods disclosed in the Examples provided herein. […]
measured_parameter: AC50 (µM)

// known answers, use as guide
compound | system_name | AC50, µM
Cc1cc(C)n2ccc(C(=O)Nc3ccc4c(c3)C(=O)CCC4)c2n1 | glucocerebrosidase (GCase) (Homo sapiens) | 3.88
Cc1cc(C)n2ccc(C(=O)Nc3ccc(CCC(=O)O)cc3)c2n1 | glucocerebrosidase (GCase) (Homo sapiens) | 36.6

(I) Cc1cc(C)n2ccc(C(=O)Nc3cccc4c3CCC4)c2n1
(II) Cc1cc(C)n2ccc(C(=O)Nc3cccc(-c4ccccc4)c3)c2n1
(III) Cc1cc(C)n2ccc(C(=O)Nc3cccc(CC(=O)O)c3)c2n1
(IV) Cc1cc(C)n2ccc(C(=O)Nc3ccc4c(c3)CCCC4)c2n1
(V) Cc1cc(C)n2ccc(C(=O)Nc3ccc4c(c3)COC4)c2n1
Sort (5 compounds) by AC50: min first. Kindly provide the labels arranged according to the requested ordering. I, II, IV, V, III

(P) Cc1cc(C)n2ccc(C(=O)Nc3nc4c(s3)CCCC4)c2n1
(Q) CCOC(=O)Cc1ccc(NC(=O)c2ccn3c(C)cc(C)nc23)cc1
(R) Cc1cc(C)n2ccc(C(=O)Nc3c(C)nn(Cc4ccccc4)c3C)c2n1
Rank by AC50 (largest to smallest). Thanks in advance for listing the labels in the requested order. R, Q, P
(R: 39.8 µM, Q: 6.1 µM, P: 1.58 µM)

(A) Cc1cc(C)n2ccc(C(=O)Nc3ccc4c(c3)CCC4)c2n1
(B) Cc1cc(C)n2ccc(C(=O)Nc3cccc(CCC(=O)ON4C(=O)CCC4=O)c3)c2n1
Could you point out whether the larger AC50 belongs to A or to B ? Field: selected label. Fill in the label of the entry you choose. B

(I) Cc1cc(C)n2ccc(C(=O)Nc3nc4c(s3)CC(C)(C)CC4)c2n1
(II) Cc1cc(C)n2ccc(C(=O)Nc3cccc(CCC(=O)O)c3)c2n1
Could you determine which record has the numerically smaller AC50? Candidates: I and II Reply briefly: the label of your chosen item. I
(I: 1.12 µM, II: 8.91 µM)
